biological target: UniProt:P00533; experiment: EGFR target modulation in HEKn (EGFR-WT) cell line (phospho-EGFR Y1173 ELISA); conditions: value outside parentheses
property_name: IC50 (nM)

Kindly state the measured IC50 obtained for Cc1cccc2nc(NC(=O)c3ccnnc3)n([C@@H]3CCCCN(C(=O)C#CCN(C)C)C3)c12 [Example 17-87] with UniProt:P00533.
37

[1] Cc1cc(C(=O)Nc2nc3cccc(C)c3n2[C@@H]2CCCCN(C(=O)/C=C/CN3CC[C@@H](F)C3)C2)ccn1 [Example 3-10]
[2] Cc1cccc2nc(NC(=O)c3ccnc(F)c3)n(C3CCCCN(C(=O)/C=C/CN(C)C)C3)c12 (stereo not shown) [Example 17-58]
[3] Cc1cc(C(=O)Nc2nc3cccc(Cl)c3n2[C@@H]2CCCCN(C(=O)/C=C/CN3CC(O)C3)C2)ccn1 [Example 3-13]
Which order do these items take when sorted by rising IC50? List them. Field: ranking. Enter the labels in the order requested.
2, 1, 3
(2: 154 nM, 1: 620 nM, 3: 900 nM)

* * *

molecular target: human EGFR L858R (NIH/3T3 cells) (Homo sapiens, UniProt P00533, L858R); assay: EGFR target modulation in engineered NIH/3T3 cell lines (phospho-EGFR Y1068 AlphaLISA), EGFR L858R; assay type: cell-based; details: engineered NIH/3T3 cells, read-out: NIH3T3 IC50 (μM) EGFR (L858R)
Sequence (P00533 25-1210 L858R): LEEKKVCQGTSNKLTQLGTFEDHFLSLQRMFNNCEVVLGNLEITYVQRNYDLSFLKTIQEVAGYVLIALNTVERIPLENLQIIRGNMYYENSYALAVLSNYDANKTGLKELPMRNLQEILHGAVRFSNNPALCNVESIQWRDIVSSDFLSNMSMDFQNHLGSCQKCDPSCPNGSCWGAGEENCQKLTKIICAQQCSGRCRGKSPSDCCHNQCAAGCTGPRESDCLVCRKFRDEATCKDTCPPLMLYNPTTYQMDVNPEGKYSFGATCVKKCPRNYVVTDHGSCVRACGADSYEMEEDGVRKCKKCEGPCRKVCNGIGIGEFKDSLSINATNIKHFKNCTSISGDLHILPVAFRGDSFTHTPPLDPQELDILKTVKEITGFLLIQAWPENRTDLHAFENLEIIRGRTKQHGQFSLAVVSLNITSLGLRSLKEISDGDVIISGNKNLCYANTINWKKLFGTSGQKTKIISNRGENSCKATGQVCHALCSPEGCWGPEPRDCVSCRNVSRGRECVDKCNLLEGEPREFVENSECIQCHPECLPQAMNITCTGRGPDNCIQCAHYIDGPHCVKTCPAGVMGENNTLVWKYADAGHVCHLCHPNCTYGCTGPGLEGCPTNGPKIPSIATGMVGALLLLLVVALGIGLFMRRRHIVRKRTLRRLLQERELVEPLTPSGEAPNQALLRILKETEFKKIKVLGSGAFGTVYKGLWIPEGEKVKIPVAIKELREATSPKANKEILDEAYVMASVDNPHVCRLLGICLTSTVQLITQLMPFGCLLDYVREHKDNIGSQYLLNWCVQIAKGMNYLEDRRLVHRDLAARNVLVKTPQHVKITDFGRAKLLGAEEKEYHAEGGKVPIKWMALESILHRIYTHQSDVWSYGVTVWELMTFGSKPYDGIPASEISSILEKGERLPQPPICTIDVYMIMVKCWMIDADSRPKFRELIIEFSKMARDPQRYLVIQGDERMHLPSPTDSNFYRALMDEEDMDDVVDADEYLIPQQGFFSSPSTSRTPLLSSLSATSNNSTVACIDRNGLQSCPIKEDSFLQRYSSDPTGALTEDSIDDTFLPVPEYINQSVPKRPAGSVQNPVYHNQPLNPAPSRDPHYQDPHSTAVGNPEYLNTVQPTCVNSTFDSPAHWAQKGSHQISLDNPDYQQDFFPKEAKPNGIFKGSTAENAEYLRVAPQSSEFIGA
property_name: IC50 (µM)

I am curious: what IC50 value has been reported for C=CC(=O)N1CCCCC(n2c(NC(=O)c3ccccc3)nc3cccc(C(=O)NCCS(C)(=O)=O)c32)C1 (stereo not shown) ?
0.305

[A] Cc1cccc2nc(NC(=O)c3ccncc3)n(C3CCCCN(C(=O)/C=C/CN(C)C)C3)c12 (stereo not shown)
[B] C=CC(=O)N1CCCC[C@@H](n2c(NC(=O)c3ccnc(C)c3)nc3cccc(Cl)c32)C1
[C] C=CC(=O)N1CCCC(n2c(NC(=O)c3cccc(C(F)(F)F)c3)nc3c2CN(C(=O)OC)CC3)C1 (stereo not shown)
[D] Cc1cccc2nc(NC(=O)c3ccc(C(F)(F)F)nc3)n(C3CCCCN(C(=O)/C=C/CN(C)C)C3)c12 (stereo not shown)
Endpoint returns the given compounds ordered by ascending IC50. The response must list the labels following the requested ordering.
D, A, B, C

* * *

target: human EGFR L858R/T790M (NIH/3T3 cells) (Homo sapiens, UniProt P00533, L858R/T790M); assay: EGFR target modulation in engineered NIH/3T3 cell lines (phospho-EGFR Y1068 AlphaLISA), EGFR L858R/T790M; type: cell-based; details: engineered NIH/3T3 cells, read-out: NIH3T3 IC50 (μM) EGFR (L858R/T790M)
Sequence (P00533 25-1210 T790M/L858R): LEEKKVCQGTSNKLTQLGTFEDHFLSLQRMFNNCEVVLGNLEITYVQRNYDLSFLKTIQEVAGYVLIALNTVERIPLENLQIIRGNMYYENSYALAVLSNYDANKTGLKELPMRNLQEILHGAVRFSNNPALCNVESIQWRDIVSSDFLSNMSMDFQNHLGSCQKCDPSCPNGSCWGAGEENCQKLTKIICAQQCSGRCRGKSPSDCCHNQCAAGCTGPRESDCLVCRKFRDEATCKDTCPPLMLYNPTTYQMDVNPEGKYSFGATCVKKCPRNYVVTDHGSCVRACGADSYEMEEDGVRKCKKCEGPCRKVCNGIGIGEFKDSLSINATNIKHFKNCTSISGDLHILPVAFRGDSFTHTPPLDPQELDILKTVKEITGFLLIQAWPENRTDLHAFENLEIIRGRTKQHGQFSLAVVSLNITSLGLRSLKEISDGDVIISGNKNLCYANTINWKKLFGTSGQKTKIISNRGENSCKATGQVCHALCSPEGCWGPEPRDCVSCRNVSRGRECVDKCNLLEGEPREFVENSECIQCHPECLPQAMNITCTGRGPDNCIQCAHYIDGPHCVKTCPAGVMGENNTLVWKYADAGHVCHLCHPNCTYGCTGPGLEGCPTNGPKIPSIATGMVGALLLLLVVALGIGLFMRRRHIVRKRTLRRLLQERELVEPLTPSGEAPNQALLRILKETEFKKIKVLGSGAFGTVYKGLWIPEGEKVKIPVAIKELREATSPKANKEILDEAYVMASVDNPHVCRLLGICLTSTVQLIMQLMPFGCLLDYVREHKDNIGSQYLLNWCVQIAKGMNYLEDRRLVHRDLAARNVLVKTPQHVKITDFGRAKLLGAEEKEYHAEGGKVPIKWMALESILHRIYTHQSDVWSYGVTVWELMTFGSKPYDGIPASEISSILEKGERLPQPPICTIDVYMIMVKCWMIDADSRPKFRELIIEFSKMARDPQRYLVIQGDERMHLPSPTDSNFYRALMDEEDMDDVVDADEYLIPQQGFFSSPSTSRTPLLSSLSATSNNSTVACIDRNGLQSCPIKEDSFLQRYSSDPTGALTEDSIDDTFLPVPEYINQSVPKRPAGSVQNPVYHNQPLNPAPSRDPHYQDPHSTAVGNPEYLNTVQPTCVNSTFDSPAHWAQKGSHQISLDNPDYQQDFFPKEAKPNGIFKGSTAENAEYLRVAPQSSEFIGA
property_name: IC50 (µM)

Recorded results for 2 molecules are shown here.
Name the recorded IC50 for Cc1ccc(C(=O)Nc2nc3cccc(C)c3n2C2CCCCN(C(=O)/C=C/CN(C)C)C2)cn1 (stereo not shown) .
0.003

Which IC50 is listed for Cc1ncc(C(=O)Nc2nc3cccc(C)c3n2C2CCCCN(C(=O)/C=C/CN(C)C)C2)s1 (single isomer, unassigned) [Example 21-8A] ?
0.138

[I] C=CC(=O)N1CCC[C@@H](n2c(NC(=O)c3cccc(C(F)(F)F)c3)nc3cc(CO)ccc32)C1
[II] C=CC(=O)N1CCCC[C@@H](n2c(NC(=O)c3ccnc(C)c3)nc3cc(CN4CC[C@@H](F)C4)cc(C)c32)C1
Please compare: I and II . Report which one has the smaller IC50 value. Select an item and report its label.
II
